Tested on: MDA-MB-231 breast
ASSAY NOTES: NCI tumour cell line growth inhibition, 48 h
MEASURED QUANTITY: TGI

// batch mode: one TGI value per listed entry
1. CC12CC(Br)(Br)C(=O)C3C1CCCC32
2. CC1(C)COC(c2cccc(C(=O)c3ccccc3)c2)=N1
3. COc1cc2c(cc1OCCCN1CCOCC1)N=C[C@@H]1CCCN1C2=O

Key:
1. 7.62 µM
2. > 100 µM
3. > 100 µM

---

Record form. Attribute: TGI. Fill in for each entry.
System: LOX IMVI melanoma
ASSAY NOTES: NCI tumour cell line growth inhibition, 48 h
Answers are plain numbers, in µM.

CCCCCCCCCCCCNCCCc1ccccc1    3.24

Exercise: What measured TGI goes with Cc1ccccc1-n1c(=O)nc2n(-c3ccc(C(C)(C)C)cc3)c3ccccc3cc-2c1=O ?
Key: 30.3
